# Tested on: Escherichia coli TOP10
# assayExplanation: shrunken log2 fold change of peptide-encoding DNA abundance (4.5 h post-induction vs induction); higher = less antimicrobial activity (less host growth inhibition)
# experimentalSetup: time post-induction: 4.5 h; library: site-saturation at positions 5, 18, 19, 20
Would you mind telling me the reported shrunken log2 fold change of each entry?

Solved cases below.
[
  {
    "biosequence": "RRIRHRPPRLPRPRPRPKLSPRP",
    "assayResult": 0.0757
  },
  {
    "biosequence": "RRIRLRPPRLPRPRPRPPTYPRP",
    "assayResult": -0.304
  }
]

Kindly review the next sequence as well.
Challenge: # get_value(readout='shrunken log2 fold change', item= `RRIRLRPPRLPRPRPRPRDSPRP` )
Response given: -0.00311

====

Would you mind telling me the reported shrunken log2 fold change of each entry?
# Test system: Escherichia coli TOP10
# assayExplanation: shrunken log2 fold change of peptide-encoding DNA abundance (4.5 h post-induction vs induction); higher = less antimicrobial activity (less host growth inhibition)
# experimentalSetup: time post-induction: 4.5 h; library: site-saturation at positions 5, 18, 19, 20
Give bare numbers.

[
  {
    "biosequence": "RRIRYRPPRLPRPRPRPSFMPRP",
    "shrunken log2 fold change": -0.759
  }
]

Dear colleague, could you please provide shrunken log2 fold change for the sequences listed below?
1. RRIRPRPPRLPRPRPRPMDWPRP
2. RRIRKRPPRLPRPRPRPHFMPRP

Response given:
1: 0.432; 2: -0.171

====

# Test system: Escherichia coli TOP10
# assayExplanation: shrunken log2 fold change of peptide-encoding DNA abundance (4.5 h post-induction vs induction); higher = less antimicrobial activity (less host growth inhibition)
# experimentalSetup: time post-induction: 4.5 h; library: site-saturation at positions 5, 18, 19, 20
Would you mind telling me the reported shrunken log2 fold change of each entry?
Answers are plain numbers.

[
  {
    "biosequence": "RRIRFRPPRLPRPRPRPMTIPRP",
    "measuredTarget": "Escherichia coli TOP10",
    "shrunken log2 fold change": -0.182
  },
  {
    "biosequence": "RRIRYRPPRLPRPRPRPTFEPRP",
    "measuredTarget": "Escherichia coli TOP10",
    "shrunken log2 fold change": -0.274
  }
]

Kindly review the next sequence as well.
Challenge: Record lookup: for Escherichia coli TOP10, what shrunken log2 fold change belongs to `RRIRSRPPRLPRPRPRPGEWPRP` ?
Response given: -0.0156

====

# Test system: Escherichia coli TOP10
# assayExplanation: shrunken log2 fold change of peptide-encoding DNA abundance (4.5 h post-induction vs induction); higher = less antimicrobial activity (less host growth inhibition)
# experimentalSetup: time post-induction: 4.5 h; library: site-saturation at positions 5, 18, 19, 20
reportedEndpoint: shrunken log2 fold change
One number for each entry.

Solved cases below.
[
  {
    "biosequence": "RRIRKRPPRLPRPRPRPRDEPRP",
    "measuredTarget": "Escherichia coli TOP10",
    "shrunken log2 fold change": -0.0461
  },
  {
    "biosequence": "RRIRTRPPRLPRPRPRPKCWPRP",
    "measuredTarget": "Escherichia coli TOP10",
    "shrunken log2 fold change": 1.72
  },
  {
    "biosequence": "RRIRVRPPRLPRPRPRPSRRPRP",
    "measuredTarget": "Escherichia coli TOP10",
    "shrunken log2 fold change": 0.157
  },
  {
    "biosequence": "RRIRKRPPRLPRPRPRPITYPRP",
    "measuredTarget": "Escherichia coli TOP10",
    "shrunken log2 fold change": -0.193
  }
]

Dear colleague, could you please provide shrunken log2 fold change for the sequences listed below?
1. RRIRHRPPRLPRPRPRPPLHPRP
2. RRIRARPPRLPRPRPRPELWPRP
3. RRIRYRPPRLPRPRPRPIRRPRP
4. RRIRHRPPRLPRPRPRPTHEPRP
5. RRIRWRPPRLPRPRPRPQAGPRP
6. RRIRGRPPRLPRPRPRPWRIPRP
7. RRIRKRPPRLPRPRPRPKCWPRP

Response given:
1. 0.0208
2. 1.3
3. -0.0923
4. 0.0424
5. 0.335
6. -0.15
7. 0.382

Dear colleague, could you please provide shrunken log2 fold change for the sequences listed below?
1. RRIRKRPPRLPRPRPRPPCHPRP
2. RRIRVRPPRLPRPRPRPMIMPRP

Response given:
1. 0.176
2. -0.126

Dear colleague, could you please provide shrunken log2 fold change for the sequences listed below?
1. RRIRHRPPRLPRPRPRPHPHPRP
2. RRIRNRPPRLPRPRPRPEPDPRP

Response given:
[-0.19, 0.0698]

====

# System: Escherichia coli TOP10
# assayExplanation: shrunken log2 fold change of peptide-encoding DNA abundance (4.5 h post-induction vs induction); higher = less antimicrobial activity (less host growth inhibition)
# experimentalSetup: time post-induction: 4.5 h; library: site-saturation at positions 5, 18, 19, 20
reportedEndpoint: shrunken log2 fold change
One number for each entry.

[
  {
    "biosequence": "RRIRQRPPRLPRPRPRPPYIPRP",
    "measuredTarget": "Escherichia coli TOP10",
    "reportedEndpoint": "shrunken log2 fold change",
    "assayResult": -0.449
  }
]

Dear colleague, could you please provide shrunken log2 fold change for the sequences listed below?
1. RRIRARPPRLPRPRPRPDTSPRP
2. RRIRSRPPRLPRPRPRPEYSPRP
3. RRIRHRPPRLPRPRPRPVYEPRP
4. RRIRVRPPRLPRPRPRPMGYPRP
5. RRIRNRPPRLPRPRPRPEKHPRP

Response given:
1: 0.435; 2: -0.322; 3: 0.015; 4: -0.0568; 5: -0.287

Dear colleague, could you please provide shrunken log2 fold change for the sequences listed below?
1. RRIRYRPPRLPRPRPRPPFIPRP
2. RRIRFRPPRLPRPRPRPWMCPRP
3. RRIRFRPPRLPRPRPRPVDIPRP
4. RRIRTRPPRLPRPRPRPTIAPRP
5. RRIRARPPRLPRPRPRPNCRPRP

Response given:
1. -0.637
2. -0.0872
3. -0.338
4. -0.372
5. 0.0806

Dear colleague, could you please provide shrunken log2 fold change for the sequences listed below?
1. RRIRWRPPRLPRPRPRPHTGPRP
2. RRIRPRPPRLPRPRPRPWGGPRP
3. RRIRDRPPRLPRPRPRPTYVPRP
4. RRIRQRPPRLPRPRPRPATRPRP
5. RRIRDRPPRLPRPRPRPSAQPRP
6. RRIRVRPPRLPRPRPRPVCNPRP

Response given:
-0.233
0.702
-0.0733
0.616
0.469
-0.0396

====

# Test system: Escherichia coli TOP10
# assayExplanation: shrunken log2 fold change of peptide-encoding DNA abundance (4.5 h post-induction vs induction); higher = less antimicrobial activity (less host growth inhibition)
# experimentalSetup: time post-induction: 4.5 h; library: site-saturation at positions 5, 18, 19, 20
Rule: true for shrunken log2 fold change not less than -0.1, false for anything less.

Challenge: Check if shrunken log2 fold change >= -0.1 (inclusive). Item: `RRIRFRPPRLPRPRPRPILYPRP`
Response given: false

====

# System: Escherichia coli TOP10
# assayExplanation: shrunken log2 fold change of peptide-encoding DNA abundance (4.5 h post-induction vs induction); higher = less antimicrobial activity (less host growth inhibition)
# experimentalSetup: time post-induction: 4.5 h; library: site-saturation at positions 5, 18, 19, 20
Class membership depends on shrunken log2 fold change alone; the intervals are lo = under -0.09, mid = from -0.09 up to -0.01, hi = -0.01 and over

Answered cases to consult:
[
  {
    "biosequence": "RRIRLRPPRLPRPRPRPKFVPRP",
    "class": "mid"
  },
  {
    "biosequence": "RRIRPRPPRLPRPRPRPIDLPRP",
    "class": "mid"
  },
  {
    "biosequence": "RRIRIRPPRLPRPRPRPESVPRP",
    "class": "hi"
  }
]

Challenge: Please indicate the class for `RRIRTRPPRLPRPRPRPIQCPRP` based on its shrunken log2 fold change.
Response given: lo

Challenge: Please indicate the class for `RRIRCRPPRLPRPRPRPDGDPRP` based on its shrunken log2 fold change.
Response given: hi

Challenge: Please indicate the class for `RRIRWRPPRLPRPRPRPEMEPRP` based on its shrunken log2 fold change.
Response given: hi

Challenge: Please indicate the class for `RRIRFRPPRLPRPRPRPDEYPRP` based on its shrunken log2 fold change.
Response given: mid

Challenge: Please indicate the class for `RRIRWRPPRLPRPRPRPDKHPRP` based on its shrunken log2 fold change.
Response given: lo

Challenge: Please indicate the class for `RRIRERPPRLPRPRPRPRISPRP` based on its shrunken log2 fold change.
Response given: lo

====

# System: Escherichia coli TOP10;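 further: peptides expressed intracellularly from a pBAD plasmid library in pooled LB shake-flask culture, induced with 0.3% L-arabinose, DNA abundance read by NGS, three biological replicates, DESeq2 with apeglm shrinkage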
# assayExplanation: shrunken log2 fold change of peptide-encoding DNA abundance (4.5 h post-induction vs induction); higher = less antimicrobial activity (less host growth inhibition)
# experimentalSetup: time post-induction: 4.5 h; library: site-saturation at positions 5, 18, 19, 20
Rule: YES for shrunken log2 fold change not less than 0.1, NO for anything less.

[
  {
    "biosequence": "RRIRKRPPRLPRPRPRPRCPPRP",
    "measuredTarget": "Escherichia coli TOP10",
    "class": "YES"
  },
  {
    "biosequence": "RRIRVRPPRLPRPRPRPRSKPRP",
    "measuredTarget": "Escherichia coli TOP10",
    "class": "NO"
  }
]

Challenge: Check if shrunken log2 fold change >= 0.1 (inclusive). Item: `RRIRRRPPRLPRPRPRPHNVPRP`
Response given: NO

Challenge: Check if shrunken log2 fold change >= 0.1 (inclusive). Item: `RRIRDRPPRLPRPRPRPEYMPRP`
Response given: NO

Challenge: Check if shrunken log2 fold change >= 0.1 (inclusive). Item: `RRIRERPPRLPRPRPRPFYFPRP`
Response given: YES

Challenge: Check if shrunken log2 fold change >= 0.1 (inclusive). Item: `RRIRDRPPRLPRPRPRPEYHPRP`
Response given: NO

Challenge: Check if shrunken log2 fold change >= 0.1 (inclusive). Item: `RRIRCRPPRLPRPRPRPRQIPRP`
Response given: YES
